Collected pEC50 values appear next to each entry.
assay.target: UniProtKB P41145
Sequence (P41145 whole entry, looked up): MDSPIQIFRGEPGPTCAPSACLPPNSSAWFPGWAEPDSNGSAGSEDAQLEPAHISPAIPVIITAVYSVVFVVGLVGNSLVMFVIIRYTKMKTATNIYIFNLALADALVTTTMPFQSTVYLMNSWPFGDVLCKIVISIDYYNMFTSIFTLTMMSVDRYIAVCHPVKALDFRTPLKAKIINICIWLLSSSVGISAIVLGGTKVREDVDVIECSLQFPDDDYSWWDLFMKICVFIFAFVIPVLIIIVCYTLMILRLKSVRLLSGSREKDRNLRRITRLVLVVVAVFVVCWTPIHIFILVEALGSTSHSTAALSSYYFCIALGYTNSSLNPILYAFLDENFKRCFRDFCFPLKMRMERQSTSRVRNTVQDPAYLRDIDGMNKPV
assay.text: KOR agonist analogs, imaging readout, SAR follow-up, image-based (AID 2359)
condition.parameters: KOR agonist image-based assay (receptor translocation imaging)
pEC50 is a log-scale quantity: -log10 of the concentration expressed in molar.

| molecular.string | assay.target | recorded.value |
| --- | --- | --- |
| CCCCN(Cc1cc2cc(C)ccc2[nH]c1=O)C(=O)c1ccccn1 | UniProtKB P41145 | 5.31 |

Now let's try a different one.
Lookup: Report value: pEC50, system: UniProtKB P41145, molecule: "COc1ccc(CN(Cc2ccccn2)C(=O)CN2C(=O)COc3ccccc32)cc1"
Found: 5.00
